tested on: P-gp; assay: In vivo P-gp inhibition study: plasma and brain pharmacokinetics of i.v. quinidine in mice with and without inhibitor pre-treatment; conditions: male, C57, mouse, brain, iv, 5 mg/kg
measured-quantity: AUC(0-t) (ng·h/mL)
Answers are plain numbers, in ng·h/mL.

## Input Provide only the value of recorded AUC(0-t) for "C=C[C@H]1C[N@@]2CC[C@H]1C[C@@H]2[C@@H](O)c1ccnc2ccc(OC)cc12"
## Output 211

###

system: P-gp; assay: In vivo P-gp inhibition study: plasma and brain pharmacokinetics of i.v. quinidine in mice with and without inhibitor pre-treatment; conditions: male, C57, mouse, plasma, iv, 5 mg/kg
measured-quantity: Tmax (min)
One number for each entry, in min.

## Input Provide only the value of recorded Tmax for C=C[C@H]1C[N@@]2CC[C@H]1C[C@@H]2[C@@H](O)c1ccnc2ccc(OC)cc12 [Quinidine]
## Output 39.6

###

Test system: P-gp
Test: In vivo P-gp inhibition study: plasma and brain pharmacokinetics of i.v. quinidine in mice with and without inhibitor pre-treatment
Conditions: male, C57, mouse, plasma, iv, 5 mg/kg
Experimental: Male C57 mice weighing 30–35 g and of 6–8 weeks old were taken and the animal experiments were conducted in the animal research facility of Syngene International limited, Bengaluru, India. […] After sacrificing the mice at different time points, brain was collected homogenised at 5× concentration with phosphate buffered saline using Bullet blender. […] Supernatant was collected in a 96 well plate and analysed by liquid chromatography with mass spectroscopy (LC-MS, QTRAP ABSCIEX API 4000). […]
measured-quantity: AUC(0-t) (ng·h/mL)
Give bare numbers, in ng·h/mL.

## Input Provide only the value of recorded AUC(0-t) for "C=C[C@H]1C[N@@]2CC[C@H]1C[C@@H]2[C@@H](O)c1ccnc2ccc(OC)cc12"
## Output 496

###

system: P-gp; assay: In vivo P-gp inhibition study: plasma and brain pharmacokinetics of i.v. quinidine in mice with and without inhibitor pre-treatment; conditions: male, C57, mouse, brain, iv, 5 mg/kg
measured-quantity: Tmax (min)
One number for each entry, in min.

## Input Provide only the value of recorded Tmax for "C=C[C@H]1C[N@@]2CC[C@H]1C[C@@H]2[C@@H](O)c1ccnc2ccc(OC)cc12"
## Output 48

###

molecular target: P-gp (Homo sapiens); test: in vitro; conditions: Caco-2
Sequence (P08183 whole entry): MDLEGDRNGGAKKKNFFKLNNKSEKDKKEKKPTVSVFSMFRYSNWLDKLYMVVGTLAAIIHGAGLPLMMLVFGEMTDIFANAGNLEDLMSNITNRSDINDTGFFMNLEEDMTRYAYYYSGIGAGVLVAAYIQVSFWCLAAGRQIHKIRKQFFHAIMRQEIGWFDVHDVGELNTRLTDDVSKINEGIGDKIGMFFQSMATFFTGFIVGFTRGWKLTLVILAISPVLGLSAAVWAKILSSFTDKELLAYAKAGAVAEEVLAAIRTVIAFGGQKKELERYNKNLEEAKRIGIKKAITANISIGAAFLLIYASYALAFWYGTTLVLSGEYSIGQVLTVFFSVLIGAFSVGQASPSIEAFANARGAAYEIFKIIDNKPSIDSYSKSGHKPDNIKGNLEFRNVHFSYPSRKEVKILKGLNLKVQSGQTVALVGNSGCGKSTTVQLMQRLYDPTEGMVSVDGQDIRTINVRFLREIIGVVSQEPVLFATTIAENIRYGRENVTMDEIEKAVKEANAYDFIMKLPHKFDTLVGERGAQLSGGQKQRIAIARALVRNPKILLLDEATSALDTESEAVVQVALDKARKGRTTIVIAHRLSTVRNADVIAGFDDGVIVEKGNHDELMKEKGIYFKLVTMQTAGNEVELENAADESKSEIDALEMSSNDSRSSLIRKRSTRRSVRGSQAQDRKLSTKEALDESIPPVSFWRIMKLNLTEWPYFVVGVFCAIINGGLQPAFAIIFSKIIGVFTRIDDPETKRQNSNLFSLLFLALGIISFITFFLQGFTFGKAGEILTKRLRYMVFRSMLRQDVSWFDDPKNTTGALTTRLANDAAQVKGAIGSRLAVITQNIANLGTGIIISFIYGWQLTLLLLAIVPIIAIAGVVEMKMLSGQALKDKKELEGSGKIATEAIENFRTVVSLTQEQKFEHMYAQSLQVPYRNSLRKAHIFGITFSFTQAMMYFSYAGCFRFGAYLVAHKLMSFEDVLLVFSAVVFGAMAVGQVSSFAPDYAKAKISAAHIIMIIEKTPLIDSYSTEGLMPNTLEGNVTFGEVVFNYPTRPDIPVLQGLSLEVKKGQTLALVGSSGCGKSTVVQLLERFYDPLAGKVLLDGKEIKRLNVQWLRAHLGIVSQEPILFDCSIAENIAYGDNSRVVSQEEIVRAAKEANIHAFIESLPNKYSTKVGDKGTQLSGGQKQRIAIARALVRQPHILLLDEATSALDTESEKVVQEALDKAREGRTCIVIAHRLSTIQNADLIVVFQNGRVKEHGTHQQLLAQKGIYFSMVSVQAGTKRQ
measured-quantity: Papp A→B at 10 µM (×10⁻⁶ cm/s)
Answers are plain numbers, in ×10⁻⁶ cm/s.

## Input Provide only the value of recorded Papp A→B at 10 µM for "C[C@H]1O[C@@H](O[C@H]2[C@@H](O)C[C@H](O[C@H]3[C@@H](O)C[C@H](O[C@H]4CC[C@@]5(C)[C@H](CC[C@@H]6[C@@H]5C[C@@H](O)[C@]5(C)[C@@H](C7=CC(=O)OC7)CC[C@]65O)C4)O[C@@H]3C)O[C@@H]2C)C[C@H](O)[C@@H]1O"
## Output 0.0518

###

target: P-gp (Homo sapiens); test: in vitro; settings: Caco-2
measured-quantity: Papp B→A at 10 µM
Write the numeric value and append its unit.

## Input Provide only the value of recorded Papp B→A at 10 µM for "C[C@H]1O[C@@H](O[C@H]2[C@@H](O)C[C@H](O[C@H]3[C@@H](O)C[C@H](O[C@H]4CC[C@@]5(C)[C@H](CC[C@@H]6[C@@H]5C[C@@H](O)[C@]5(C)[C@@H](C7=CC(=O)OC7)CC[C@]65O)C4)O[C@@H]3C)O[C@@H]2C)C[C@H](O)[C@@H]1O"
## Output 1.8 ×10⁻⁶ cm/s

Origin of measurements: paper PMC5028351
